- tested.system: Bcl-2 protein (Recombinant Human Bcl-2 Protein) (Homo sapiens, UniProt P10415)
- Construct: purchased Novus NBP2-34889
- Sequence (P10415 whole entry): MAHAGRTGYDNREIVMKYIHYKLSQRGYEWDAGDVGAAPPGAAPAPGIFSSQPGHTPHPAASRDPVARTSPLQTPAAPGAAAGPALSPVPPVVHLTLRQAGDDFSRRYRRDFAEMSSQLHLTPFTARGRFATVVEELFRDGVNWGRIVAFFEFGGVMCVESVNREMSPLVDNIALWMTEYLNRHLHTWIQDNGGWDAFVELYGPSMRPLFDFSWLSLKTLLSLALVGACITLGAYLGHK
- assay.notes: Binding evaluation of mixture library compounds to Bcl-2 using AS-MS (affinity selection mass spectrometry)
- experimental.context: n = 2
- Description: […] Then, analysis of the 1200 compounds was carried out for samples A, B, and C with TraceFinder 5.1 (Thermo Fisher Scientific) and CHANCE Software (in-house), and the ASMS Ratio (%) was calculated according to the following calculation formula. […]
endpoint.label: ASMS ratio (%)

{"columns": ["smiles.code", "unit.symbol", "ASMS ratio (%)"],
 "data": [
  ["CCOc1cccc(-c2ccc(CN3CCN(c4ccc(C(=O)NS(=O)(=O)c5ccc(NCCSc6ccccc6)c(C(F)(F)F)c5)cc4)CC3)c3ccccc23)c1", "%", 0.3]
]}

[I] CCOc1cncc(-c2ccc(CN3CCN(c4ccc(C(=O)NS(=O)(=O)c5ccc(NCCSc6ccccc6)c(C(F)(F)F)c5)cc4)CC3)cc2F)c1
[II] CCOc1cncc(-c2ccc(C(=O)N3CCN(c4ccc(C(=O)NS(=O)(=O)CCC(F)(F)F)nn4)CC3)cc2C)c1
[III] CCOc1cccc(-c2cc(CN3CCN(c4ccc(C(=O)NS(=O)(=O)CCC(F)(F)F)nn4)CC3)cc(OC(C)C)c2)c1
[IV] CCOc1cncc(-c2ccccc2CN2CCN(c3ccc(C(=O)NS(=O)(=O)CCC(F)(F)F)nn3)CC2)c1
Incoming: Falling order of ASMS ratio (%), please. Output the labels ranked as instructed.
Outgoing: IV, III, II, I

###

- tested.system: Bcl-2 protein (Recombinant Human Bcl-2 Protein) (Homo sapiens, UniProt P10415)
- Construct: purchased Novus NBP2-34889
- assay.notes: Binding evaluation of mixture library compounds to Bcl-2 using AS-MS (affinity selection mass spectrometry)
- experimental.context: AS-MS, mixture of 1200 compounds, Bcl-2; ASMS Ratio(%)=(A−C)/B×100; replicate n = 2
endpoint.label: ASMS ratio (%) n = 2

Examples with their reported ASMS ratio (%) n = 2 follow.
{"columns": ["smiles.code", "endpoint.label", "assay.value"],
 "data": [
  ["CCOc1cncc(-c2ccc(C(=O)N3CCN(c4ccc(C(=O)NCC56CC7CC(CC(C7)C5)C6)cc4)CC3)c3ccccc23)c1", "ASMS ratio (%) n = 2", 3.1],
  ["CCOc1cncc(C#Cc2ccccc2C(=O)N2CCN(c3ccc(C(=O)NCC45CC6CC(CC(C6)C4)C5)nn3)CC2)c1", "ASMS ratio (%) n = 2", 0.0]
]}

[P] CCOc1cccc(-c2cc(CN3CCN(c4ccc(C(=O)NCC(F)(F)F)cc4)CC3)cc(OCC)c2)c1
[Q] CCOc1cncc(-c2ccc(CN3CCN(c4ccc(C(=O)NCC(F)(F)F)nn4)CC3)cc2F)c1
[R] CCOc1cccc(-c2ccc(C(=O)N3CCN(c4ccc(C(=O)NCC(F)(F)F)nn4)CC3)cc2F)c1
[S] CCOc1cncc(-c2ccc(CN3CCN(c4ccc(C(=O)NCC(F)(F)F)cc4)CC3)cc2C)c1
[T] CCOc1cncc(-c2cc(C(=O)N3CCN(c4ccc(C(=O)NCC56CC7CC(CC(C7)C5)C6)nn4)CC3)cc(C(F)(F)F)c2)c1
Incoming: Thanks in advance: please rank these 5 entries by ASMS ratio (%) n = 2, highest to lowest. Write the labels out in the order the request specifies.
Outgoing: T, S, R, P, Q
(T: 9.9%, S: 1.2%, R: 0.6%, P: 0.0%, Q: −0.2%)

###

- tested.system: Bcl-2 protein (Recombinant Human Bcl-2 Protein) (Homo sapiens)
- Construct: purchased Novus NBP2-34889
- assay.notes: Binding evaluation of mixture library compounds to Bcl-2 using AS-MS (affinity selection mass spectrometry)
- experimental.context: AS-MS, mixture of 1200 compounds, Bcl-2; ASMS Ratio(%)=(A−C)/B×100; replicate n = 1
endpoint.label: ASMS ratio (%) n = 1

{"columns": ["smiles.code", "ASMS ratio (%) n = 1"],
 "data": [
  ["CCOc1cncc(-c2cc(C(=O)N3CCN(c4ccc(C(=O)NCC56CC7CC(CC(C7)C5)C6)cc4)CC3)cc(C(C)(C)C)c2)c1", 6.5]
]}

[P] CCOc1cccc(-c2ccc(CN3CCN(c4ccc(C(=O)NCC(F)(F)F)nn4)CC3)c(CC)c2)c1
[Q] CCOc1cccc(-c2ccc(CN3CCN(c4ccc(C(=O)NCC(F)(F)F)cc4)CC3)c3ccccc23)c1
[R] CCOc1cccc(-c2ccc(C(=O)N3CCN(c4ccc(C(=O)NCC(F)(F)F)nn4)CC3)cc2C)c1
Incoming: Order the 3 compounds from highest to lowest ASMS ratio (%) n = 1. List the labels, following the order given in the request.
Outgoing: Q, P, R
(Q: 5.9%, P: 1.4%, R: 0.1%)

###

- tested.system: Bcl-2 protein (Recombinant Human Bcl-2 Protein) (Homo sapiens)
- Construct: purchased Novus NBP2-34889
- assay.notes: Binding evaluation of mixture library compounds to Bcl-2 using AS-MS (affinity selection mass spectrometry)
- experimental.context: AS-MS, mixture library, Bcl-2; replicate n = 1; ASMS Ratio(%)=(A−C)/B×100
endpoint.label: ASMS ratio (%) n = 1

The cases that follow already have their ASMS ratio (%) n = 1 on record.
{"columns": ["smiles.code", "assay.value"],
 "data": [
  ["CCOc1cncc(-c2ccc(CN3CCN(c4ccc(C(=O)NS(=O)(=O)CC56CC7CC(CC(C7)C5)C6)cc4)CC3)cc2F)c1", 0.0],
  ["CCOc1cncc(-c2ccc(CN3CCN(c4ccc(C(=O)NS(=O)(=O)CC56CC7CC(CC(C7)C5)C6)nn4)CC3)cc2F)c1", 15.2]
]}

[a] CCOc1cncc(-c2cc(C(=O)N3CCN(c4ccc(C(=O)NS(=O)(=O)CC56CC7CC(CC(C7)C5)C6)nn4)CC3)cc(C(F)(F)F)c2)c1
[b] CCOc1cncc(-c2cc(CN3CCN(c4ccc(C(=O)N(CC)CC)nn4)CC3)cc(OCC)c2)c1
[c] CCOc1cncc(-c2ccc(CN3CCN(c4ccc(C(=O)NS(=O)(=O)c5ccc(NCCSc6ccccc6)c([N+](=O)[O-])c5)cc4)CC3)c3ccccc23)c1
[d] CCOc1cncc(-c2ccc(C(=O)N3CCN(c4ccc(C(=O)NS(=O)(=O)CC56CC7CC(CC(C7)C5)C6)cc4)CC3)cc2F)c1
Incoming: Hey, quick one: sort these by ASMS ratio (%) n = 1, largest value first please. Write out the labels following the order that was asked for.
Outgoing: c, a, b, d

###

- tested.system: Bcl-2 protein (Recombinant Human Bcl-2 Protein) (Homo sapiens)
- Construct: purchased Novus NBP2-34889
- assay.notes: Binding evaluation of mixture library compounds to Bcl-2 using AS-MS (affinity selection mass spectrometry)
- experimental.context: AS-MS, mixture of 1200 compounds, Bcl-2; ASMS Ratio(%)=(A−C)/B×100; replicate n = 1
endpoint.label: ASMS ratio (%) n = 1

{"columns": ["smiles.code", "unit.symbol", "assay.value"],
 "data": [
  ["CCOc1cncc(-c2csc(C(=O)N3CCN(c4ccc(C(=O)NCC56CC7CC(CC(C7)C5)C6)cc4)CC3)c2)c1", "%", 4.1],
  ["CCOc1cccc(-c2cc(OC)c(CN3CCN(c4ccc(C(=O)NCC(F)(F)F)cc4)CC3)c(OC)c2)c1", "%", 3.0],
  ["CCOc1cccc(-c2ccc(C(=O)N3CCN(c4ccc(C(=O)NCC56CC7CC(CC(C7)C5)C6)cc4)CC3)c3ccccc23)c1", "%", 14.9],
  ["CCOc1cncc(-c2csc(C(=O)N3CCN(c4ccc(C(=O)NCC(F)(F)F)nn4)CC3)c2)c1", "%", 0.0]
]}

[1] CCOc1cncc(-c2csc(CN3CCN(c4ccc(C(=O)NCC56CC7CC(CC(C7)C5)C6)cc4)CC3)c2)c1
[2] CCOc1cccc(C#Cc2cncc(C(=O)N3CCN(c4ccc(C(=O)NCC(F)(F)F)cc4)CC3)c2)c1
Incoming: # query: argmin of ASMS ratio (%) n = 1 over 1 and 2 Your answer should be the label attached to the chosen record.
Outgoing: 2
(2: 0.0%, 1: 12.2%)

###

- tested.system: Bcl-2 protein (Recombinant Human Bcl-2 Protein) (Homo sapiens)
- Construct: purchased Novus NBP2-34889
- assay.notes: Binding evaluation of mixture library compounds to Bcl-2 using AS-MS (affinity selection mass spectrometry)
- experimental.context: AS-MS on the mixture of 1200 library compounds; ASMS Ratio(%)=(A−C)/B×100; replicate n = 1
endpoint.label: ASMS ratio (%) n = 1

// below: answered compounds
{"columns": ["compound", "tested.system", "ASMS ratio (%) n = 1"],
 "data": [
  ["CCOc1cccc(-c2ccc(CN3CCN(c4ccc(C(=O)N(C)CC56CC7CC(CC(C7)C5)C6)nn4)CC3)c(CC)c2)c1 [B3A075-01]", "Bcl-2 protein (Recombinant Human Bcl-2 Protein) (Homo sapiens)", "−5.8"],
  ["CCOc1cncc(C#Cc2cc(C(=O)N3CCN(c4ccc(C(=O)N(CC)CC)cc4)CC3)cc(C(F)(F)F)c2)c1 [B4J042-01]", "Bcl-2 protein (Recombinant Human Bcl-2 Protein) (Homo sapiens)", 1.0],
  ["CCOc1cccc(-c2cnn(-c3cc(C(=O)N4CCN(c5ccc(C(=O)Nc6ccc(OC)cc6)nn5)CC4)cc(C(F)(F)F)c3)c2)c1 [B1O021-01]", "Bcl-2 protein (Recombinant Human Bcl-2 Protein) (Homo sapiens)", 2.9],
  ["CCOc1cccc(C#Cc2cc(C(=O)N3CCN(c4ccc(C(=O)Nc5ccc(OC)cc5)cc4)CC3)cc(C(F)(F)F)c2)c1 [B1O041-01]", "Bcl-2 protein (Recombinant Human Bcl-2 Protein) (Homo sapiens)", 10.4],
  ["CCOc1cncc(-c2cc(C(=O)N3CCN(c4ccc(C(=O)Nc5ccc(OC)cc5)nn4)CC3)cc(C(F)(F)F)c2)c1 [B1O018-01]", "Bcl-2 protein (Recombinant Human Bcl-2 Protein) (Homo sapiens)", 1.0],
  ["CCOc1cncc(-c2ccc(C(=O)N3CCN(c4ccc(C(=O)N(CC)CC)nn4)CC3)c3ccccc23)c1 [B4J014-01]", "Bcl-2 protein (Recombinant Human Bcl-2 Protein) (Homo sapiens)", 0.0],
  ["CCOc1cccc(C#Cc2cncc(C(=O)N3CCN(c4ccc(C(=O)Nc5ccc(OC)cc5)cc4)CC3)c2)c1 [B1O031-01]", "Bcl-2 protein (Recombinant Human Bcl-2 Protein) (Homo sapiens)", "−1.3"],
  ["CCOc1cccc(C#Cc2cncc(C(=O)N3CCN(c4ccc(C(=O)N(C)CC56CC7CC(CC(C7)C5)C6)cc4)CC3)c2)c1 [B3A031-01]", "Bcl-2 protein (Recombinant Human Bcl-2 Protein) (Homo sapiens)", 8.4]
]}

[P] CCOc1cccc(-c2ccc(C(=O)N3CCN(c4ccc(C(=O)N(CC)CC)nn4)CC3)c3ccccc23)c1 [B4J013-01]
[Q] CCOc1cncc(-c2ccc(CN3CCN(c4ccc(C(=O)Nc5ccc(OC)cc5)cc4)CC3)cc2C)c1 [B1O048-01]
[R] CCOc1cccc(-c2ccc(C(=O)N3CCN(c4ccc(C(=O)N(C)CC56CC7CC(CC(C7)C5)C6)cc4)CC3)c3ccccc23)c1 [B3A035-01]
[S] CCOc1cncc(C#Cc2cncc(C(=O)N3CCN(c4ccc(C(=O)N(CC)CC)nn4)CC3)c2)c1 [B4J010-01]
Incoming: Please rank these compounds by ASMS ratio (%) n = 1 in descending order. Could you list the labels in the order requested?
Outgoing: R, P, S, Q
(R: 9.7%, P: 2.0%, S: 0.0%, Q: −0.3%)

[A] CCOc1cncc(C#Cc2ccccc2C(=O)N2CCN(c3ccc(C(=O)Nc4ccc(OC)cc4)cc3)CC2)c1 [B1O030-01]
[B] CCOc1cncc(-c2cnn(-c3cc(C(=O)N4CCN(c5ccc(C(=O)N(CC)CC)nn5)CC4)cc(C(F)(F)F)c3)c2)c1 [B4J022-01]
Incoming: When A and B are compared, which has the higher number for ASMS ratio (%) n = 1? Label of pick, please.
Outgoing: A
